Biological target: OR51E1 (Homo sapiens, UniProt Q8TCB6)
Construct: full coding region amplified from human genomic DNA, N-terminal IL-6-HaloTag kept, transient in NxG 108CC15 cells with RTP1S, G-alpha-olf, G-gamma-13, GloSensor-22F
Sequence (Q8TCB6 whole entry): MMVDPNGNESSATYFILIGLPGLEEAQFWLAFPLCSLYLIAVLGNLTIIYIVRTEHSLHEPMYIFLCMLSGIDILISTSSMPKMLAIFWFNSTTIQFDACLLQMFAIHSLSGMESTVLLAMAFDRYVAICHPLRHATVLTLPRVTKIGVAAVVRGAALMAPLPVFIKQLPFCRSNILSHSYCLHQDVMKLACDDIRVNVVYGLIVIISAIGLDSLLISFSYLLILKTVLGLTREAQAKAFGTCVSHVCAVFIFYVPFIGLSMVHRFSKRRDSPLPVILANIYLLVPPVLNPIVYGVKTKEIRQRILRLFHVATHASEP
Assay: GloSensor cAMP luminescence
Conditions: read-out: IL-6-HaloTag®-receptor / EC50
assay-readout: pEC50
One number for each entry, as −log10 of the molar value.

Return pEC50 (reported value) for this molecule: CCCC(=O)O
4.02

---

Target: OR2W1 (Homo sapiens, UniProt Q9Y3N9)
Construct: full coding region amplified from human genomic DNA, N-terminal IL-6-HaloTag kept, transient in NxG 108CC15 cells with RTP1S, G-alpha-olf, G-gamma-13, GloSensor-22F
Sequence (Q9Y3N9 1-320): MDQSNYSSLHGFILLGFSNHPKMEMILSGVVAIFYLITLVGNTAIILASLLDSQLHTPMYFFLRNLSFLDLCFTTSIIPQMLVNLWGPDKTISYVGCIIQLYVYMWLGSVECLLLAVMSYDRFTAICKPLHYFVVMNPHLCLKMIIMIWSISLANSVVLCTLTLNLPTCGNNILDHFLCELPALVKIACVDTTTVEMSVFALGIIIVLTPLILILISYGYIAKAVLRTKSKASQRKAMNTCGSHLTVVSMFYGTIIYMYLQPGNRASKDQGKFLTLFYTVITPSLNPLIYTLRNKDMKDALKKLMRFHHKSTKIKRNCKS
Experiment: GloSensor cAMP luminescence
assay-readout: EC50 (µM)
Give bare numbers, in µM.

Return EC50 (reported value) for this compound: C=CCOC(=O)Cc1ccccc1 [allyl phenyl acetate]
27

Ref: paper PMC6706138
